This collection of values is drawn from PubChem BioAssay AID1159580.

Protocol notes: chemical genetic growth profiling, strain panel (AID 1159580);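 note: tested at 20 µM; growth read once vehicle control cultures reached saturation at 30 °C; 1 = growth at the plate median or of vehicle wells; lower values mean less growth of the strain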
Condition parameters: S. cerevisiae deletion strains, growth OD, locus YGL253W, strain hxk2
Out of some 5,500 compounds screened, about 2,000 (36%) were called active. Another 18% or so got no clear call; they are omitted. Cut-off read from the data, not from the text of the source: active = normalized growth mostly below about 0.91 (no sharp cut-off); inconclusive = no clear call, values can overlap the other calls; inactive = mostly above about 0.92. The list shows a part of the results.
Result category, one only: active, inactive

# Compound, Class label
records = [
    ("CCCC1O[C@@H]2CC3C4CCC5=CC(=O)C=CC5(C)C4[C@@H](O)CC3(C)[C@]2(C(=O)CO)O1 (stereo partly drawn)", "inactive"),
    ("O=C(O)c1ccccc1Nc1cccc(C(F)(F)F)c1", "active"),
    ("COC(=O)C[C@H]1C(C)(C)C(=O)[C@@H]2CC3=C4CC(=O)O[C@@H](c5ccoc5)[C@]4(C)CCC3[C@@]1(C)C2=O (stereo partly drawn)", "inactive"),
    ("CCN(CC)CCNC(=O)c1cc(S(C)(=O)=O)ccc1OC", "inactive"),
    ("CC(C)=CCC[C@](C)(O)C1CC=C(C)CC1 (stereo partly drawn)", "inactive"),
    ("O=C(NC(=O)c1c(F)cccc1F)Nc1ccc(Cl)cc1", "inactive"),
    ("C1CCN2CC3CC(CN4CCCCC34)C2C1 (stereo not drawn)", "inactive"),
    ("CC(C)NCC(O)c1ccc2ccccc2c1 (stereo not drawn)", "inactive"),
]

Task item: Can you look up the reported call for CN[C@H](CC(=O)O)C(=O)O for me?
Reply: inactive

Task item: Can you look up the reported call for Cc1occc(=O)c1O for me?
Reply: inactive

Task item: Can you look up the reported call for Nc1ccc(C(=O)NCC(=O)O)cc1 for me?
Reply: inactive

Task item: Can you look up the reported call for CC(=O)O[C@@H]1CC2C(C)(C)C=CC(=O)[C@]2(C)C2CC[C@@]3(C)[C@H](c4ccoc4)OC(=O)C4OC43[C@@]21C (stereo partly drawn) for me?
Reply: inactive

Task item: Can you look up the reported call for C[C@H](N)[C@H](O)c1ccc(O)c(O)c1 for me?
Reply: inactive

---

Consider the following molecules; for each one, report its normalized growth.
Protocol notes: chemical genetic growth profiling, strain panel (AID 1159580);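 note: tested at 20 µM; growth read once vehicle control cultures reached saturation at 30 °C; 1 = growth at the plate median or of vehicle wells; lower values mean less growth of the strain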
Condition parameters: S. cerevisiae deletion strains, growth OD, locus YNL067W, strain RPL9B, hits give low values
In all, about 5,500 compounds went through this assay and about 2,000 (36%) were called active. Not shown: some 18% with an inconclusive outcome. Some of the results follow.
Give bare numbers.

# Molecule, normalized growth
data = [
    ("NC(=NCCC[C@H](N)C(=O)O)NC(CCC(=O)O)C(=O)O (some centres undefined)", 0.995),
    ("Cc1occc(=O)c1O", 1),
    ("Nc1ncnc2c1ncn2C1C[C@H](O)[C@@H](CO)O1 (some centres undefined)", 0.995),
]

I'm hoping you can list normalized growth for every molecule here, please.
1. NCCCC[C@H](N[C@@H](CCc1ccccc1)C(=O)O)C(=O)N1CCC[C@H]1C(=O)O
2. COc1cc2c(c(OC)c1OC)-c1ccc(OC)c(=O)cc1[C@@H](NC(C)=O)CC2
3. Nc1nc2c(ncn2C2C[C@H](O)[C@@H](CO)O2)c(=O)[nH]1 (some centres undefined)
4. CCCc1occc(=O)c1/C=C/O
5. c1ccc2c3c([nH]c2c1)CNCC3
6. O=c1[nH]c(=O)n(C2C[C@@H](O)[C@@H](CO)O2)cc1F (some centres undefined)
7. Nc1ncnc2c1ncn2[C@@H]1O[C@H](CO)[C@@H](O)[C@H]1O

Reply:
1: 0.964; 2: 1.03; 3: 1.01; 4: 0.962; 5: 1; 6: 1.06; 7: 0.967

I'm hoping you can list normalized growth for every molecule here, please.
1. O=C(O)CCCCC1CCSS1 (centres undefined)
2. Cc1c(O)c(O)cc2c1CC=C1[C@@]2(C)CC[C@@]2(C)C3C[C@](C)(C(=O)O)CC[C@]3(C)CC[C@]12C (some centres undefined)
3. CNc1ccccc1C(=O)O
4. COc1c2c(cc3c1OCO3)CCN(C)C2
5. COC(=O)Oc1ccccc1C(=O)O
6. Cc1ccsc1/C=C/C1=NCCCN1C
7. C=CC(C1=CC(=O)C(OC)=CC1=O)c1ccc(O)cc1 (centres undefined)

Reply:
[1.01, 0.918, 1.01, 1.01, 1.07, 0.98, 1.06]

I'm hoping you can list normalized growth for every molecule here, please.
1. Cc1occc(=O)c1/C=C/O
2. COC(=O)[C@]1(C)CC[C@]2(C)CC[C@]3(C)C4=CCc5c(cc(O)c(O)c5C)[C@]4(C)CC[C@@]3(C)C2C1 (some centres undefined)
3. CC(C)N(C(=O)SCC(Cl)=C(Cl)Cl)C(C)C
4. COC(=O)C[C@H]1C(C)(C)C(=O)[C@@H]2CC3=C4CC(=O)O[C@@H](c5ccoc5)[C@]4(C)CCC3[C@@]1(C)C2=O (some centres undefined)
5. C/C=C/c1ccc2c(c1)OCO2
6. CCCCC(CC)CN1CN(CC(CC)CCCC)CC(C)(N)C1 (centres undefined)

Reply:
1: 0.993; 2: 0.998; 3: 1.02; 4: 1.02; 5: 1.01; 6: 0.605

Task item: # return recorded normalized growth for entry CCC[C@H]1CC2=C(C[C@@H](CC)CC3=C1C(=O)OC3=O)C(=O)OC2=O
Reply: 1.01

---

Protocol notes: chemical genetic growth profiling, strain panel (AID 1159580);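 note: tested at 20 µM; growth read once vehicle control cultures reached saturation at 30 °C; 1 = growth at the plate median or of vehicle wells; lower values mean less growth of the strain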
Condition parameters: S. cerevisiae deletion strains, growth OD, locus YIL066C, strain RNR3, hits give low values
About 2,000 (36%) of roughly 5,500 compounds were called active. Not shown: some 18% with an inconclusive outcome. This is one part of the list.
hey, just use 1 (yes) if measured normalized growth is less than 0.9, otherwise 0 (no)

Use the examples below as a reference point.
# Compound, Class label
rows = [
    ("NC[C@H](O)c1ccc(O)c(O)c1", "0 (no)"),
    ("COC(=O)[C@]1(C)CC[C@]2(C)CC[C@]3(C)C4=CCc5c(cc(O)c(O)c5C)[C@]4(C)CC[C@@]3(C)C2C1 (some centres not stated)", "0 (no)"),
    ("O=C(O)c1ccccc1Nc1cccc(C(F)(F)F)c1", "1 (yes)"),
    ("NCC(O)c1ccc(O)cc1 (configuration not stated)", "0 (no)"),
    ("CC(=O)OCC1(C)CCC2(C)CCC3(C)C4=CCc5c(cc(OC(C)=O)c(OC(C)=O)c5C)C4(C)CCC3(C)C2C1 (configuration not stated)", "0 (no)"),
    ("CS(=O)(=O)CCCCN=C=S", "1 (yes)"),
]

Now turn to the next compound.
Task item: Please check: normalized growth for Cc1c(O)c(O)cc2c1CC=C1[C@@]2(C)CC[C@@]2(C)C3C[C@](C)(C(=O)O)CC[C@]3(C)CC[C@]12C (some centres not stated) , strictly under 0.9 or not?
Reply: 1 (yes)

---

Consider the following molecules; for each one, report its normalized growth.
Protocol notes: chemical genetic growth profiling, strain panel (AID 1159580);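 note: tested at 20 µM; growth read once vehicle control cultures reached saturation at 30 °C; 1 = growth at the plate median or of vehicle wells; lower values mean less growth of the strain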
Condition parameters: S. cerevisiae deletion strains, growth OD, locus YNL248C, strain rpa49, hits give low values
About 2,000 (36%) of roughly 5,500 compounds were called active. Roughly 18% stayed inconclusive and do not appear here. Some of the results follow.
Answers are plain numbers.

I'm hoping you can list normalized growth for every molecule here, please.
1. COC(C)(C)CCC[C@H](C)C/C=C/C(C)=C/C(=O)OC(C)C
2. COc1ccc(C(Cl)=C(c2ccc(OC)cc2)c2ccc(OC)cc2)cc1
3. COc1c2c(cc3c1OCO3)CCN(C)C2

Reply:
0.996
0.962
1.02

I'm hoping you can list normalized growth for every molecule here, please.
1. O=C(O[C@@H]1Cc2c(O)cc(O)cc2O[C@@H]1c1cc(O)c(O)c(O)c1-c1c([C@H]2Oc3cc(O)cc(O)c3C[C@H]2O)cc(O)c(O)c1O)c1cc(O)c(O)c(O)c1
2. Cc1ccc(/C(=C\CN2CCCC2)c2ccccn2)cc1
3. O[N+]1=CC=CCC1=S.On1ccccc1=S.[Zn]
4. COc1cccc(/C=C/C(=O)O)c1C(C)C
5. CC(C)(C)NCC(O)c1ccccc1Cl (configuration not stated)
6. NC(=NCCC[C@H](N)C(=O)O)NC(CCC(=O)O)C(=O)O (some centres not stated)
7. Oc1c(I)cc(Cl)c2cccnc12
8. CC(C)NCC(O)c1ccc2ccccc2c1 (configuration not stated)

Reply:
1.02
0.992
0.0755
0.988
1.02
1.01
0.104
0.998

I'm hoping you can list normalized growth for every molecule here, please.
1. C=CC(C1=CC(=O)C(OC)=CC1=O)c1ccccc1 (configuration not stated)
2. C=C[C@@H](C1=CC(=O)C(OC)=C(OC)C1=O)c1ccccc1
3. Cc1c(O)c(O)cc2c1CC=C1[C@@]2(C)CC[C@@]2(C)C3C[C@](C)(C(=O)O)CC[C@]3(C)CC[C@]12C (some centres not stated)

Reply:
0.842
0.403
0.741

I'm hoping you can list normalized growth for every molecule here, please.
1. CN[C@H](CC(=O)O)C(=O)O
2. Oc1c(Br)cc(Br)c2cccnc12
3. CC1(C)C(C(Cl)Cl)C2(Cl)C(Cl)C(Cl)C1(Cl)C2(Cl)Cl (configuration not stated)
4. O=C(O)c1ccccc1Nc1cccc(C(F)(F)F)c1
5. CCN(CC)CCNC(=O)c1cc(S(C)(=O)=O)ccc1OC
6. Nc1ncnc2c1ncn2C1C[C@H](O)[C@@H](CO)O1 (some centres not stated)
7. CCOP(=S)(OCC)SCn1c(=O)oc2cc(Cl)ccc21
8. CC1(C)CCCC2(C)C3C1[C@@H](O)C2(C)C[C@H]3O (some centres not stated)

Reply:
[0.98, 0.0858, 0.99, 0.921, 0.971, 1.01, 0.966, 0.996]
